TEST METHOD NOTES: CLint (intrinsic clearance) assay, liver microsomal incubation
Format: in vitro ADME, human
CONDITION INFO: liver microsomes, pH 7.4; human hepatic microsomes, 0.5 mg/mL protein, class symbols

{"MOLECULE": "Nc1ncc(-c2ccc3cc[nH]c3c2)c(N2CCC3(CCNC3=O)CC2)c1Cl", "microsomal CLint at 0.8 μM": "100 to 150 µL/min/mg"}
{"MOLECULE": "Cn1cc(-c2ccc(-c3cnc(N)c(Cl)c3N3CC[C@H](C#N)[C@@H](O)C3)cc2)cn1 (racemic)", "microsomal CLint at 0.8 μM": "10 to 50 µL/min/mg"}
{"MOLECULE": "CN1c2ccc(-c3cnc(N)c(F)c3N3CCC4(CCNC4=O)CC3)cc2CS1(=O)=O", "microsomal CLint at 0.8 μM": "10 to 50 µL/min/mg"}
{"MOLECULE": "Nc1ncc(-c2ccc3c(c2)NC(=O)C3)c(N2CCC3(CCNC3=O)CC2)c1Cl", "microsomal CLint at 0.8 μM": "10 to 50 µL/min/mg"}

Reference source: patent US9834541B2
